- test_target: Plasmodium falciparum protein kinase 6 (PK6, PF3D7_1337100)
- measurement_protocol: PfPK6 kinase inhibitors, biochemical, TCAMS library (AID 1159586)
- measurement_conditions: recombinant PfPK6, Kinase-Glo ATP depletion luminescence
Results with a measured potency or affinity are listed apart. The source made the active and inactive calls. The rule behind the calls is not given here.
quantity_measured: outcome

>>> recorded_result("COc1ccc2nccc([C@@H](O)CN3CCC(NCc4nc5c([N+](=O)[O-])cccc5[nH]4)CC3)c2c1")
"inactive"
>>> recorded_result("Cc1ccc(S(=O)(=O)/N=C(\\N)NC(N)=O)cc1")
"inactive"
>>> recorded_result("c1csc(-c2nc(NCC3CCCO3)ncc2-c2ccsc2)n1 (stereo not given)")
"inactive"
>>> recorded_result("Cc1ccc(-c2cnc(N)c3cc(-c4ccnc(N)n4)ccc23)cc1")
"inactive"
>>> recorded_result("O=C(Nc1cccc(CN2CCCN(Cc3ccc(O)cc3)CC2)c1)c1ccc2ccccc2n1")
"inactive"
>>> recorded_result("CCN(CC)CCNc1ccnc2c3ccccc3n(C)c12")
"inactive"
>>> recorded_result("Cc1cc(F)ccc1Nc1nc(N(C)c2ccccc2)c2cccc(O)c2n1")
"inactive"
>>> recorded_result("CC[C@H](C)CNC(=O)c1cncc(-c2ccc(CN3CCC(N4CCCC4)CC3)cc2)c1")
"inactive"
>>> recorded_result("CCc1ccc(CN2CCC(C(=O)Nc3ccc(-c4nc5ccccc5[nH]4)cc3)CC2)o1")
"inactive"
>>> recorded_result("COc1ccc(CNc2ccc3nc(N)nc(N)c3c2)cc1")
"inactive"

====

- measurement_protocol: HepG2 cytotoxicity, primary screen, cytotoxicity control for P. falciparum antimalarial project, cell-based, ATP luminescence (AID 2303)
- measurement_conditions: HepG2 viability, 24-48 h, at 10 µM
Activity calls are given as the source filed them.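 How the source made its calls: active means inhibition above 50%; inactive means the rest.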
Possible outcomes: True for active, False for inactive

>>> classification("Cc1c(Cl)ccc2sc(N3CCN(C(=O)c4ccc([N+](=O)[O-])o4)CC3)nc12")
"False"
>>> classification("COc1ccc(N2CCN(CCCCNC(=O)c3ccc(NC(=O)c4ccc(C(F)(F)F)cc4)cc3)CC2)c(OC)c1")
"False"
>>> classification("O=C(/C=C/c1ccc(Cl)c(Cl)c1)NC1CCC(CN2CCC(c3nc4ncccc4[nH]3)CC2)CC1 (stereo unspecified)")
"False"
>>> classification("COc1ccc(CC(=O)NC(CCCN2CCC3(CC2)OCc2ccccc23)c2ccc(Cl)c(Cl)c2)cc1 (stereo unspecified)")
"False"
>>> classification("CC(Nc1nncc(-c2cccc(F)c2)n1)c1ccc(F)cc1 (stereo unspecified)")
"False"
>>> classification("O=C(Nc1ccon1)c1cc(-c2cccnc2)nc2ccc(Cl)cc12")
"False"
>>> classification("Cc1cc(C2CCN(CCCCNC(=O)c3ccc(-c4ccc(C#N)cc4)cc3)CC2)c(C)cc1OCCO")
"False"
>>> classification("CCc1ccccc1OCCCON1C(N)=NC(N)=NC1(C)C")
"True"
>>> classification("Cc1cc2c(cc1C(F)(F)F)N(C(=O)Nc1cnc(OCCN(C)C)c(C(F)(F)F)c1)CC2")
"False"
>>> classification("COc1cc2c(cc1NC(=O)CN1CCN(C(=O)c3ccco3)CC1)oc1ccccc12")
"False"
>>> classification("Cc1ccccc1CNc1ccc2nc(N)nc(N)c2c1")
"True"
>>> classification("CC(CCc1ccc(OCc2ccccc2)cc1)NCC(O)c1ccccc1 (stereo unspecified)")
"False"
>>> classification("N#Cc1cncc(-c2nc3c(N4CCC(N5CCCC5)CC4)cccc3n2CCNCc2ccccc2)c1")
"False"
>>> classification("N#Cc1cccc(NC(=O)Nc2cccc(-c3cccc(-c4nc5ccc(F)cc5[nH]4)c3)c2)c1")
"True"
>>> classification("O=C(/C=C/c1ccc(Cl)c(Cl)c1)NCCCCCN1CCC(NC(=O)Nc2ccc(F)c(F)c2)CC1")
"False"
>>> classification("Cn1nc(-c2cccc(CNCCc3cccs3)c2)c2cnc(NC3CCCC3)nc21")
"False"
>>> classification("CSc1cccc(NC(=O)Nc2ccc(I)c(OCCN(C)C)c2)c1")
"False"
>>> classification("CCCc1cc(Cc2cnc(N)nc2N)cc(CC)c1OC")
"False"
>>> classification("CCCCOc1cc(CNCCCCCCNCc2cc(OCCCC)cc3ccccc23)c2ccccc2c1")
"True"
>>> classification("COc1ccc(CN2CCC(CNCCc3ccccc3Cl)CC2)cc1")
"False"
>>> classification("COc1ccc2sc(CNCCCNc3cc(=O)c4ccccc4[nH]3)c(Cl)c2c1")
"False"
